test system: MILI (PIWIL2) piRISC loaded with L1MC piRNA (26 nt); experiment: pre-steady-state target cleavage rate (min^-1); guide: L1MC piRNA 5'p-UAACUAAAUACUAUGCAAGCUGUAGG; higher = faster piRNA-guided slicing of the target; conditions: auxiliary factor: 500 nM mouse GTSF1;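 note: 1 nM active piRISC with 0.1 nM target library at 33 °C single turnover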
The class of a record is decided solely by its measured pre-steady-state target cleavage rate; consult Low (below 0.05), Medium (0.05 to below 0.2), High (0.2 or more)

Worked examples follow.
# ORDERED RESIDUES, CAT
measured = [
    ("UCCUGGAUGUCGUUGCUUAGUUUUUAGUUA", "Low"),
    ("UCCUGCUAUAGCUUGCAUAGUAUUUAGUUA", "High"),
    ("UCCUGGAACAGCUUCCUUAGUAUUUAGUUA", "High"),
]

Ask | Exercise: read the entry "UCCUGGAACUGCUAGCAUAGUAUUUAGUUA" and state which class it falls under.
Reply | High

Ask | Quick one: "UCCUGGAUGUGCUUGCAUAGUAAUUACUUA"
Reply | Low

Ask | Quick one: "UCCUGCAACAGCUUGCAUAGUAUUUAGAAA"
Reply | Medium

Ask | Quick one: "UCCUCCUACAGCUUGCAUGUAUUUAGUUA"
Reply | Medium

Ask | Quick one: "UCCUCCUACACGUUGCAUAGUAUUUAGAAA"
Reply | Medium

Ask | Quick one: "UCCUGGAUGUCGAUGCAUAGUGAUUUAGUUA"
Reply | Low

Ask | Quick one: "UCCUGCUACAGCUUCCAUAGUUUUUAGUUA"
Reply | Low

Ask | Quick one: "UCCUGGUACACCUUGCAUAGUAUUUAGUAA"
Reply | Medium

Ask | Quick one: "UCCUGGAUGUCGAUGCAUAUUAUUUAGUUA"
Reply | Low

Ask | Quick one: "UCCUGGUACAGCUUGCAUAGUAUUUAGUCUA"
Reply | Medium

###

Could you please report measured pre-steady-state target cleavage rate for the items listed next?
tested on: MILI (PIWIL2) piRISC loaded with L1MC piRNA (26 nt); assay: pre-steady-state target cleavage rate (min^-1); guide: L1MC piRNA 5'p-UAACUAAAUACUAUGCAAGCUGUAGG; higher = faster piRNA-guided slicing of the target; settings: auxiliary factor: none (no GTSF1);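 note: 1 nM active piRISC with 0.1 nM target library at 33 °C single turnover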
One number for each entry.

Guide cases for pre-steady-state target cleavage rate, answers given:
# ORDERED RESIDUES, MEASUREMENT TARGET, ENDPOINT NAME, ENDPOINT RESULT
measured = [
    ("UCCUGGACCAGCUUGCAUAGUAUUUAGUUA", "MILI (PIWIL2) piRISC loaded with L1MC piRNA (26 nt)", "pre-steady-state target cleavage rate", 0.00604),
    ("UCCUGCUACAGCUAGCAAAGUAUUUAGUUA", "MILI (PIWIL2) piRISC loaded with L1MC piRNA (26 nt)", "pre-steady-state target cleavage rate", 0.00463),
]

Each sequence below has a recorded value; state its pre-steady-state target cleavage rate.
1. UCCUGGAUCAACUUGCAUAGUAUUUAGUUA
2. UCCUGGAUGAGCUUGCUAUGUAUUUAGUUA
3. UCCUGGUUCAGCUUGCAUAGUAUUUAGUUA
4. UCCUGGAUGAGCUUGCAUAGUAUCUAGUUA
5. UCCUGGAUCACCAUGCAUAGUAUUUAGUUA
6. UCCUGGAUGUCCUUGCAUAGUAUUUAAGUUA

Reply |
1: 0.00729; 2: 0.00524; 3: 0.0108; 4: 0.00451; 5: 0.00489; 6: 0.00879

Each sequence below has a recorded value; state its pre-steady-state target cleavage rate.
1. UCCUGGUACAGCUUCGAUAGUAUUUAGUAA
2. UCCUGGAUCAGCUUGACAUAGUAUUUAGUUA

Reply |
0.00305
0.00343

###

system: MILI (PIWIL2) piRISC loaded with L1MC piRNA (26 nt); test: pre-steady-state target cleavage rate (min^-1); guide: L1MC piRNA 5'p-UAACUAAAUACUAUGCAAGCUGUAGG; higher = faster piRNA-guided slicing of the target; settings: auxiliary factor: 500 nM mouse GTSF1;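 note: 1 nM active piRISC with 0.1 nM target library at 33 °C single turnover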
ENDPOINT NAME: pre-steady-state target cleavage rate
Answers are plain numbers.

Guide cases for pre-steady-state target cleavage rate, answers given:
# ORDERED RESIDUES, pre-steady-state target cleavage rate
data = [
    ("UCCUGGAACAGCUUGGAUAGUAUUUUGUUA", 0.203),
    ("UCCUGGAUGUCGUUGCAUAGUAUUUAUGUUA", 0.137),
    ("UCCUGGAUGAGCUUGCAUAGUAUUUAAUUA", 0.0516),
    ("UCCUGGAUGUGCUUGCUUAGUAUUUACUUA", 0.0644),
    ("UCCUGGUACAGCUUGCAUAGUAUUUUGAUA", 0.0966),
    ("UCCUGGAACAGGAAGCAUAGUAUUUACAAA", 0.061),
    ("UCCUGGAUCAGCUUGCAUAGUAUUUAUUUA", 0.0819),
    ("UCCUCCAUGAGCUUGCAUAGUAUUUAGUUA", 0.279),
    ("UCCUCCUACAGCAUGCAUAGUAAUUAGUUA", 0.251),
    ("UCCUGGAACAGCUUGCAUAGAAUUUAGAUA", 0.0527),
]

Each sequence below has a recorded value; state its pre-steady-state target cleavage rate.
1. UCCUCCUACAGCUUGCAUAGUAGUUUAGUUA
2. UCCUGGAUCAGGUUGCAUAGUAUUUUCAAA
3. UCCUGGAACAGCAUGCAUAGUAUUUUCAAA

Reply |
0.23
0.07
0.066

Each sequence below has a recorded value; state its pre-steady-state target cleavage rate.
1. UCCUGGUACAGCUUGCAUAGUAUUUAGUAUA
2. UCCUGGUACAGGUUGCAUACUAUUUAGUUA
3. UCCUGGAUGAGGUUGCAUAGUAUUAAGUUA

Reply |
0.224
0.111
0.0422

###

Could you please report measured pre-steady-state target cleavage rate for the items listed next?
tested on: EfPiwi piRISC loaded with piRNA #1 (26 nt); experiment: pre-steady-state target cleavage rate (min^-1); auxiliary factor: 500 nM Ephydatia muelleri Gtsf1; guide: piRNA #1 5'p-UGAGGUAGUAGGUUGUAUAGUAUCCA; higher = faster piRNA-guided slicing of the target
Numbers only.

Guide cases for pre-steady-state target cleavage rate, answers given:
# ORDERED RESIDUES, pre-steady-state target cleavage rate
records = [
    ("GGAGACCAUACUAUACAACGUACAACCUCA", 0.00296),
    ("GGAGACGAUACUAUUCAACCUACUUCCUCA", 0.00413),
    ("GGAGACCAUGACUAUACAACCUACUACCUCA", 0.0764),
]

Each sequence below has a recorded value; state its pre-steady-state target cleavage rate.
1. GGAGACCAUUCUAUACAACCUACAACCUCA
2. GGAGUGGAUACUAUACAACCUUCAACCUCA
3. GGAGAGGAUCUAUACAACCUACUACCUCA
4. GGAGUGGAUACUAUACCACCUACUACCUCA
5. GGAGACCUAACUAUAACAACCUACUACCUCA
6. GGAGACGAUACUAUACAACCUAUUACCUCA
7. GGAGACCAAACUAUACAACCUACUAGCUCA
8. GGAGACCUAAUCUAUACAACCUACUACCUCA

Reply |
1: 0.00312; 2: 0.00298; 3: 0.00612; 4: 0.0104; 5: 0.00912; 6: 0.0146; 7: 0.00453; 8: 0.297

###

system: MILI (PIWIL2) piRISC loaded with piRNA #1 (26 nt); assay: pre-steady-state target cleavage rate (min^-1); guide: piRNA #1 5'p-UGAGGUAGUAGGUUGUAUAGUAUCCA; MIWI and MILI are mouse PIWI proteins and EfPiwi is from a freshwater sponge; tags in brackets are library labels; higher = faster piRNA-guided slicing of the target; settings: auxiliary factor: 500 nM mouse GTSF1;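 note: 1 nM active piRISC with 0.1 nM target library at 33 °C single turnover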
ENDPOINT NAME: pre-steady-state target cleavage rate

Guide cases for pre-steady-state target cleavage rate, answers given:
# ORDERED RESIDUES, pre-steady-state target cleavage rate
measured = [
    ("GGAGACCUAUGAUAUGUUCCUACUACCAGA", "< 0.0001"),
    ("GGAGACCUAUGAUAUGAACCUAGCUACCUCA", "< 0.0001"),
    ("GGAGUCGAUACUAUUCAACCUACUACCUCA", 0.192),
]

Each sequence below has a recorded value; state its pre-steady-state target cleavage rate.
1. GGAGACCUAACUUUACAACCUAGUACCUCA
2. GGAGACCUAUGAUAUCAACUCUACUACCUCA
3. GGAGACGAUACUAGACAACCUACUACCUCA

Reply |
0.0141
< 0.0001
0.171
